Data origin: ChEMBL document CHEMBL1136831

Target: Corticotropin releasing factor receptor (Rattus norvegicus, UniProt P47866+P35353)
Assay: Binding affinity at Corticotropin releasing factor receptor of rat cortical homogenates.
Readout type: Ki (nM)

Below are worked cases with known answers.
CCc1nc2c(-c3ccc(OC)nc3C(F)(F)F)ccnc2n1C(CC)C1CC1 (stereo not drawn) ... 0.7
CCc1nc2c(-c3ccc(OC)nc3C(F)(F)F)ccnc2n1C(C)C1CCC1 (stereo not drawn) ... 0.8
CCc1nc2c(-c3ccc(OC)nc3C)ccnc2n1C(C)C1CCC1 (stereo not drawn) ... 2.1
CCc1nc2c(-c3ccc(OC)nc3C)ncnc2n1C(C1CC1)C1CC1 ... 1.8
CCCC(C)n1c(CC)nc2c(-c3cnc(OC)cc3C)ccnc21 (stereo not drawn) ... 17.1

1. CCCC(C)n1c(CC)nc2c(-c3ccc(O)nc3C(F)(F)F)ccnc21 (stereo not drawn)
2. CCc1nc2c(-c3ccc(OC)cc3C)ccnc2n1C(CC)C1CC1 (stereo not drawn)
Query: # compare Ki for 1 vs 2 ; return the one with the smaller value Your answer should be the label attached to the chosen record.
Reply: 2

a. CCCC(C)n1c(CC)nc2c(-c3ccc(OCCO)nc3C(F)(F)F)ccnc21 (stereo not drawn)
b. CCc1nc2c(-c3ccc(Cl)nc3C)ccnc2n1C(CC)C1CC1 (stereo not drawn)
Query: Between these two entries, a and b , state which has the higher Ki. Your answer should be the label attached to the chosen record.
Reply: a

P. CCc1nc2c(-c3ccc(N(C)C)nc3C)ccnc2n1C(CC)C1CC1 (stereo not drawn)
Q. CCc1nc2c(-c3ccc(OC)nc3C(F)(F)F)ccnc2n1C(CC)CCOC (stereo not drawn)
Query: Between these two entries, P and Q , state which has the higher Ki. Your answer should be the label attached to the chosen record.
Reply: P
(P: 7.5 nM, Q: 1.6 nM)

I. CCCC(C)n1c(CC)nc2c(-c3ccc(Cl)nc3C)ccnc21 (stereo not drawn)
II. CCc1nc2c(-c3ccc(OC)nc3C(F)(F)F)ccnc2n1C(C)CC (stereo not drawn)
Query: Between these two entries, I and II , state which has the higher Ki. Your answer should be the label attached to the chosen record.
Reply: I
(I: 6.6 nM, II: 0.7 nM)

P. CCCC(C)n1c(CC)nc2c(-c3ccc(OC)nc3C)ccnc21 (stereo not drawn)
Q. CCc1nc2c(-c3ccc(OC)cc3C)ncnc2n1C(C1CC1)C1CC1
R. CCc1nc2c(-c3ccc(OC)nc3C)ccnc2n1C(C)CC (stereo not drawn)
Query: Given 3 compounds, produce a descending ranking by Ki. API: response body holds the labels in the requested order.
Reply: R, Q, P
